Known protein stability index of a selection of sequences
# Test system: Saccharomyces cerevisiae;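 further: PSI is a weighted mean of sequencing reads over stability bins, variants kept only with over 10 reads, mCherry proximal and sfGFP distal, peptide attached via GGGS linker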
# MEASUREMENT PROTOCOL: protein stability index of tFT-peptide fusion (C-terminal peptide) (PSI (0-1 scale)); higher = more stable (slower turnover)
# MEASUREMENT CONTEXT: genetic background: wild type; temperature: 30 C
RECORDED METRIC: protein stability index

1) KKRVHNRKEETE    0.691
2) MITQVIKRRKRK    0.688
3) HGAEAWPDVGPG    0.639
4) NMKPPTNKGSNK    0.675
5) PPPPPPSPPRLP    0.592
6) AGFCFVALSLPL    0.629
7) NNKNNKNKIYKK    0.679
8) PPPNSSTSPPCS    0.196
9) LFDLVVDSYGHI    0.753
10) RSGLARPSPLTR    0.674
11) LIKVGRRREGTG    0.691
12) KIIKIHLFWGII    0.478
13) PPSPELALSLGH    0.673
14) PGAVNRASDGEV    0.606
15) PIPPRLPPPPPP    0.589
16) LVVWASLVRVEG    0.33
17) GHYLLCPQGQSD    0.667
18) DESRVYLSIALL    0.623
19) GADGYSCGLVIT    0.539
20) SFPLSPPSLPSL    0.781
21) RNFAPPFLPSPH    0.711
22) HPISLSYPSPFV    0.665
23) NDGKTKRVKKRR    0.619
24) KSGEHSCCRSAD    0.602
